// data source = the supplement of paper PMC10567573

B1: MMP1 (parent)
chain: YTPDLPRADVDHAIEKAFQLWSNV

Variants of: B1
Experiment: protein stability index of a GFP-peptide fusion (GPS, HEK-293T) (PSI 1-6); higher = more stable;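 also: lentivirally expressed fusions sorted by FACS into six bins by GFP to DsRed ratio, PSI derived from sequencing read proportions per bin multiplied by bin number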
Settings: c terminus: a fixed tail appended
MEASUREMENT NAME: protein stability index
Answer with a number only.

Some solved cases for reference:
S22I	2.04
A17M	2
V10G	1.96

Request: Fill blank: measured protein stability index of the variant H12V is ____.
Response: 1.95

Request: Fill blank: measured protein stability index of the variant D11S is ____.
Response: 1.96

Request: Fill blank: measured protein stability index of the variant Q19W is ____.
Response: 1.96

Request: Fill blank: measured protein stability index of the variant T2S is ____.
Response: 1.95

Request: Fill blank: measured protein stability index of the variant H12Y is ____.
Response: 2

Request: Fill blank: measured protein stability index of the variant P6D is ____.
Response: 2.01

Request: Fill blank: measured protein stability index of the variant F18V is ____.
Response: 2.04
